Reported pIC50 values for the following compounds.
System: RAW264.7
test: Antiinflammatory activity in mouse RAW264.7 cells assessed as inhibition of LPS-induced NO production after 24 hrs by Griess assay
Format: functional, cell-based
condition.parameters: RAW264.7, 24 h
On this scale, pIC50 is minus log10 of a concentration expressed in M (mol/L).

Sample records with pIC50:
CO[C@@H]1C=C[C@@]23c4cc5c(cc4CN(CCCC(=O)O)[C@@H]2C(=O)N(C)[C@H]3C1)OCO5	4.73
CO[C@@H]1C=C[C@@]23c4cc5c(cc4CN(CCc4c[nH]c6ccccc46)[C@@H]2C(=O)N(C)[C@H]3C1)OCO5	4.74
CO[C@@H]1C=C[C@@]2(C(=O)N(CCC(C)C)Cc3cc4c(cc32)OCO4)[C@@H](N(C)C=O)C1	4.63
CO[C@@H]1C=C[C@@]23c4cc5c(cc4CN(CCc4ccccc4)[C@@H]2C(=O)N(C)[C@H]3C1)OCO5	4.99

Query: Note pIC50 for the compound shown: CO[C@@H]1C=C[C@@]23c4cc5c(cc4C[N+]([O-])(CCc4ccc(O)cc4)[C@@H]2C(=O)N(C)[C@H]3C1)OCO5 (stereo not given in full)
Response: 5.12

* * *

target.or.system: Acetylcholinesterase (Electrophorus electricus)
Sequence (O42275 whole entry): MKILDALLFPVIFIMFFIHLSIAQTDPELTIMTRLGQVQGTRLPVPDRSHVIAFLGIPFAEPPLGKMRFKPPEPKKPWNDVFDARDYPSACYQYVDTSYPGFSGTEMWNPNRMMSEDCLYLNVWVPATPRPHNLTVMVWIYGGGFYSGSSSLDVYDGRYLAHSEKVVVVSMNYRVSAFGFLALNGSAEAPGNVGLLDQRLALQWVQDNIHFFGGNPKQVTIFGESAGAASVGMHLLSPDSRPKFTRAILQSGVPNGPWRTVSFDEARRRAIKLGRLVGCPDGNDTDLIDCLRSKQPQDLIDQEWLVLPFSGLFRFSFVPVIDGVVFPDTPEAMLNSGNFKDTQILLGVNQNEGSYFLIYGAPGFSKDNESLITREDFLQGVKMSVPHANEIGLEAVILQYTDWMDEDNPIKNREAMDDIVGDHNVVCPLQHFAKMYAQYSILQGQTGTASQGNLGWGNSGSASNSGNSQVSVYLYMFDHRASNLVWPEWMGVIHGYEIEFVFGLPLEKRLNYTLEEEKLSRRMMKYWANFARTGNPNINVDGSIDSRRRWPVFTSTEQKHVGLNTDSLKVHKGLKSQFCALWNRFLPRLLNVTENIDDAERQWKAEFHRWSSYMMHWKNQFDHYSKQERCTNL
measured.parameter: IC50 (µM)
Record the value in µM, omitting the unit from your answer.

CN1Cc2ccc(O)c3c2[C@@]2(C=C[C@H](O)C[C@@H]2O3)[C@@H](O)C1	169
CO[C@@H]1C=C[C@@]23c4cc5c(cc4C[N+]([O-])(CCc4ccc(O)cc4)[C@@H]2C(=O)N(C)[C@H]3C1)OCO5 (some centres undefined)	75.3
CO[C@@H]1C=C[C@@]23c4cc5c(cc4C[N+]([O-])(CCC(C)C)[C@@H]2C(=O)N(C)[C@H]3C1)OCO5 (some centres undefined)	57.3

Next:
Query: Write down measured IC50 (Acetylcholinesterase (Electrophorus electricus)) for this compound. CO[C@@H]1C=C[C@@]23c4cc5c(cc4CN(CCc4c[nH]c6ccccc46)[C@@H]2C(=O)N(C)[C@H]3C1)OCO5
Response: 111
